Data provenance: ChEMBL document CHEMBL1147192

test: Displacement of [3H]flunitrazepam from benzodiazepine receptor in rat neuronal membranes at 10 uM
Metric: pKi
// pKi is dimensionless: -log10 of concentration (M)

Identify measured pKi associated with CN1C(=O)CN=C(c2ccccc2)c2cc(Cl)ccc21
8.17

* * *

test system: Rattus norvegicus; experiment: Anticonvulsant activity in orally dosed Wistar rat after 1 hr by PTZ test; type: functional; details: po
ED50 overview
Express the result in mg/kg but write the number alone.

Please review the following examples before continuing.
{"Structure notation": "Fc1cccc(-c2noc(Cn3cncn3)n2)c1", "Metric": "ED50", "Observed measurement": 39.2}
{"Structure notation": "Fc1cccc(-c2nc(Cn3cncn3)no2)c1", "Metric": "ED50", "Observed measurement": 73.9}
{"Structure notation": "c1ccc(-c2nc(Cn3cncn3)no2)cc1", "Metric": "ED50", "Observed measurement": 25.5}

Kindly consider the entry below.
Given Cc1ccc(-c2noc(Cn3cncn3)n2)cc1 , respond with its ED50.
76.5
